The measured values listed here are drawn from paper PMC8222333.

molecular target: dAsCas12a K548R (Acidaminococcus sp., UniProt U2UMQ6 1-1307, K548R;D908A;E993A;D1235A); experiment: Spec-seq (native PAGE EMSA with sequencing of bound and unbound); 25 mM Tris-HCl pH 7.4, 150 mM KCl, 5 mM MgCl2, 10% glycerol, 1 mM DTT, 40 ng/uL salmon sperm DNA; 400 nM Cas12a, 480 nM crRNA, 50 nM library, 37 C 1 h; native PAGE at room temperature; high values mean tight binding; details: protein: recombinant
Hi! Just check whether binding signal is below -5 lnKA. Below gives MET, equal or above gives NOT MET.

[
  {
    "BINDER": "TTCA (dsDNA) DNA 1: GCTATCTAGTGCTCAGTACGCACTGTTCAAGGAAACTTCTGGCAGGACCAGGTCATGAGATCGGAAGAGCACACGTCTGAACTCCAGTCA DNA 2: TGACTGGAGTTCAGACGTGTGCTCTTCCGATCTCATGACCTGGTCCTGCCAGAAGTTTCCTTGAACAGTGCGTACTGAGCACTAGATAGC RNA: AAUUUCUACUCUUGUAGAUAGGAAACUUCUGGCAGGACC",
    "GROUP": "MET"
  },
  {
    "BINDER": "CTTC (dsDNA) DNA 1: GCTATCTAGTGCTCAGTACGCACTGCTTCAGGAAACTTCTGGCAGGACCAGGTCATGAGATCGGAAGAGCACACGTCTGAACTCCAGTCA DNA 2: TGACTGGAGTTCAGACGTGTGCTCTTCCGATCTCATGACCTGGTCCTGCCAGAAGTTTCCTGAAGCAGTGCGTACTGAGCACTAGATAGC RNA: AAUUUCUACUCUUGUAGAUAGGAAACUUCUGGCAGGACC",
    "GROUP": "MET"
  },
  {
    "BINDER": "TTTT (dsDNA) DNA 1: GCTATCTAGTGCTCAGTACGCACTGTTTTAGGAAACTTCTGGCAGGACCAGGTCATGAGATCGGAAGAGCACACGTCTGAACTCCAGTCA DNA 2: TGACTGGAGTTCAGACGTGTGCTCTTCCGATCTCATGACCTGGTCCTGCCAGAAGTTTCCTAAAACAGTGCGTACTGAGCACTAGATAGC RNA: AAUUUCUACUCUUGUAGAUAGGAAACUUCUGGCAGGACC",
    "GROUP": "NOT MET"
  },
  {
    "BINDER": "ATTA (dsDNA) DNA 1: GCTATCTAGTGCTCAGTACGCACTGATTAAGGAAACTTCTGGCAGGACCAGGTCATGAGATCGGAAGAGCACACGTCTGAACTCCAGTCA DNA 2: TGACTGGAGTTCAGACGTGTGCTCTTCCGATCTCATGACCTGGTCCTGCCAGAAGTTTCCTTAATCAGTGCGTACTGAGCACTAGATAGC RNA: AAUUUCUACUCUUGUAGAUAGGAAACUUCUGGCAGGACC",
    "GROUP": "MET"
  },
  {
    "BINDER": "ATTC (dsDNA) DNA 1: GCTATCTAGTGCTCAGTACGCACTGATTCAGGAAACTTCTGGCAGGACCAGGTCATGAGATCGGAAGAGCACACGTCTGAACTCCAGTCA DNA 2: TGACTGGAGTTCAGACGTGTGCTCTTCCGATCTCATGACCTGGTCCTGCCAGAAGTTTCCTGAATCAGTGCGTACTGAGCACTAGATAGC RNA: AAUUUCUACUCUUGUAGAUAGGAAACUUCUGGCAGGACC",
    "GROUP": "MET"
  }
]
